Tested on: barnyardgrass (Echinochloa crus-galli)
test_description: Test A postemergence, visual injury rating 0-100
Assay type: in vivo
conditions_used: 500 g ai/ha, 0 to 100 scale
Description: […]

>  <compound>
CC1=[N+]([O-])C(C(=O)Nc2cccc(F)c2F)C(c2ccc(C(F)(F)F)nc2)C1 (racemic)

>  <tgt>
barnyardgrass (Echinochloa crus-galli)

>  <Barnyardgrass plant response rating>
90

$$$$
>  <compound>
CC1=[N+]([O-])C(C(=O)Nc2cccc(F)c2F)C(c2ccc(F)cc2Oc2ncc(F)cn2)C1 (racemic)

>  <tgt>
barnyardgrass (Echinochloa crus-galli)

>  <Barnyardgrass plant response rating>
40

$$$$
>  <compound>
CC1=[N+]([O-])C(C(=O)Nc2cccc(F)c2F)C(c2cccc(C(C)C)c2)C1 (racemic)

>  <tgt>
barnyardgrass (Echinochloa crus-galli)

>  <Barnyardgrass plant response rating>
90

$$$$
>  <compound>
CC1=[N+]([O-])C(C(=O)Nc2cccc(F)c2F)C(c2cccc(Oc3ccc(Cl)cn3)c2)C1 (racemic)

>  <tgt>
barnyardgrass (Echinochloa crus-galli)

>  <Barnyardgrass plant response rating>
60

$$$$
>  <compound>
CC1=[N+]([O-])C(C(=O)Nc2cccc(C#N)c2F)C(c2ccc(C(F)(F)F)cc2)C1 (racemic)

>  <tgt>
barnyardgrass (Echinochloa crus-galli)

>  <Barnyardgrass plant response rating>
90

$$$$
>  <compound>
CC1=[N+]([O-])C(C(=O)Nc2ccccc2C#N)C(c2ccc(C(F)(F)F)cc2)C1 (racemic)

>  <tgt>
barnyardgrass (Echinochloa crus-galli)

>  <Barnyardgrass plant response rating>
40

$$$$
>  <compound>
CC1=[N+]([O-])C(C(=O)Nc2cccc(F)c2F)C(c2ccc(OC(F)(F)F)c(F)c2)C1 (racemic)

>  <tgt>
barnyardgrass (Echinochloa crus-galli)

>  <Barnyardgrass plant response rating>
80

$$$$

Where do the numbers come from? From patent US11498899B2.
